Hey, just so you know, these numbers are from paper PMC8569681.

target system: equine BChE (eqBChE) (Equus caballus)
Construct: purchased Sigma-Aldrich (Milan, Italy)
Sequence (P81908 whole entry): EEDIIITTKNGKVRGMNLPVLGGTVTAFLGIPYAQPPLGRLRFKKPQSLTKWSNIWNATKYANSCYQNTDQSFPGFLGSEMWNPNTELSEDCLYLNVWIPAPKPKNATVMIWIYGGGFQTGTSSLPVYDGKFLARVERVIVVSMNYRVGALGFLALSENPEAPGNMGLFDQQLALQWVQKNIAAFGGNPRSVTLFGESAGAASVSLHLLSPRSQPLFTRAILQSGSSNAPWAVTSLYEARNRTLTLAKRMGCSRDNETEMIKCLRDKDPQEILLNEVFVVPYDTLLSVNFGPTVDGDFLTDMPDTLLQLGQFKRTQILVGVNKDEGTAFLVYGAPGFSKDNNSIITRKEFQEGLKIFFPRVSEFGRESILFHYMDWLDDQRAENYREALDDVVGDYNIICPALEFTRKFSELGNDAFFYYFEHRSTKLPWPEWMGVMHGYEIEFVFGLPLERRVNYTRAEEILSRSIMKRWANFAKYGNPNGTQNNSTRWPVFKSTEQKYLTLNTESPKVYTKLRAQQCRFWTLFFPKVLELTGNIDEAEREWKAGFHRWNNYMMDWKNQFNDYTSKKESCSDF
measurement description: Percent inhibition of eqBChE, Ellman's spectrophotometric method
Format: biochemical
run conditions: read-out: % inhibition vs eqBChE ± SD (9 uM), 9 uM; supplement csv
Quick list: inhibition at 9 µM per entry.
Number in %, nothing else.

Answered cases to consult:
GET /values?readout=inhibition at 9 µM&item= COc1ccccc1CNCCCCCCNc1ncccn1
43.9

GET /values?readout=inhibition at 9 µM&item= Brc1ccc(CNCCCCCCNc2ncccn2)cc1
38.6

GET /values?readout=inhibition at 9 µM&item= Brc1ccc(CNCCCCCNc2ncccn2)cc1
17.1

GET /values?readout=inhibition at 9 µM&item= c1ccc(CNCCCCCNc2ncccn2)cc1
17.4

GET /values?readout=inhibition at 9 µM&item= Brc1ccc(CNCCCCCNc2ccccn2)cc1
12.1

GET /values?readout=inhibition at 9 µM&item= Oc1cccc(CNCCCCCCNc2ccccn2)c1O
11.5

GET /values?readout=inhibition at 9 µM&item= COc1cc(CNCCCCCCNc2ncccn2)ccc1O
84.4

Next up:
GET /values?readout=inhibition at 9 µM&item= COc1cc(CNCCCCCCNc2ccccn2)cc(OC)c1OC
19
